System: Tip60-RNAi knockdown Drosophila larvae
Format: in vivo, Drosophila melanogaster
Settings: oral in food, compared to CTB
Endpoint: Performance in rescuing locomotor defects (in words)

Take a look at these entries with their results.
{"columns": ["Molecule", "Result"],
 "data": [
  ["CC(C)CNC(=O)COc1ccccc1C(=O)Nc1ccc(Cl)c(C(F)(F)F)c1", "low-performing"],
  ["CNC(=O)NC(=O)COc1ccccc1C(=O)Nc1ccc(Cl)c(C(F)(F)F)c1", "highest performers"],
  ["COC(=O)CNC(=O)COc1ccccc1C(=O)Nc1ccc(Cl)c(C(F)(F)F)c1", "low-performing"],
  ["Cn1cc(C(=O)COc2ccccc2C(=O)Nc2ccc(Cl)c(C(F)(F)F)c2)cn1", "low-performing"],
  ["COC(=O)CCC(=O)COc1ccccc1C(=O)Nc1ccc(Cl)c(C(F)(F)F)c1", "highest performers"],
  ["O=C(Nc1ccc(Cl)c(C(F)(F)F)c1)c1ccccc1OCC(=O)C1CCOCC1", "low-performing"],
  ["O=C(COc1ccccc1C(=O)Nc1ccc(Cl)c(C(F)(F)F)c1)NCC1CC1", "low-performing"]
]}

Known value: Tip60-RNAi knockdown Drosophila larvae Performance in rescuing locomotor defects (in words) of the molecule CCOCCC(O)COc1ccccc1C(=O)Nc1ccc(Cl)c(C(F)(F)F)c1 (stereo not drawn) equals highest performers
